experimentalTarget: bovine pancreatic trypsin (Bos taurus)
Construct: from tissue; host or cells: bovine pancreas
assayProtocol: Trypsin stability assay (Table 10)
Format: in vitro ADME
conditionNotes: bovine pancreatic trypsin solution; bovine pancreatic trypsin 2.5 μg/mL, 37° C., One Phase Decay; read-out: Stability (t1/2, mins) Trypsin
*1 amine or outer side, *2 acyl side, *3 side chain or, on linkers, in order; H or OH if unused. Where a SMILES comes first, the peptide text is derived from it. Bridges are numbered along the chain shown (N, C = ends). [ ]: non-standard residue; d: D form. NHCH2CMe2S = CC(C)(CN[*:1])S[*:2]
quantityMeasured: half-life

Q) Form field: reported half-life of CC1(C)CNC(=O)C[C@@H](NC(=O)[C@@H](N)Cc2ccc(O)cc2)C(=O)NCC(=O)N[C@@H](Cc2ccccc2)C(=O)N[C@H](C(=O)N[C@@H](CCCNC(=N)N)C(=O)N[C@@H](CCCNC(=N)N)C(N)=O)CSS1 [DP-7-12, c(Tyr-D(Asp)-Gly-Phe-SSa-Arg-Arg)] (H-Y[dD]GFCRR-NH2; linker 2-5 via NHCH2CMe2S)
A) < 0.01 min

###

assayProtocol: Serum stability
Assay type: in vitro ADME
conditionNotes: rat, more sensitive LC-MS (Table 8a), read-out: Incubation in serum: half-life
Description: Purified DP-7-11 (1 mg/mL) was dissolved in 0.1 M ammonium bicarbonate (NH4HCO3) buffer. To prepare a stock trypsin solution, 1 mg trypsin was dissolved in 50 mL of 0.1 M NH4HCO3 buffer. Equal volumes of the stock trypsin solution (62.5 μL) and DP-7-11 solution (62.5 μL) were incubated in 375 μL of 0.1M NH4HCO3 buffer in a 37° C. water bath. […] Supernatant was sampled and analysed using analytical RP-HPLC or LC-MS. […]
*1 amine or outer side, *2 acyl side, *3 side chain or, on linkers, in order; H or OH if unused. Where a SMILES comes first, the peptide text is derived from it. Bridges are numbered along the chain shown (N, C = ends). [ ]: non-standard residue; d: D form. NHCH2CMe2S = CC(C)(CN[*:1])S[*:2]
quantityMeasured: half-life at 0.125 mg/mL

Q) Form field: reported half-life at 0.125 mg/mL of CC1(C)CNC(=O)C[C@@H](NC(=O)[C@@H](N)Cc2ccc(O)cc2)C(=O)NCC(=O)N[C@@H](Cc2ccccc2)C(=O)N[C@H](C(=O)N[C@@H](CCCNC(=N)N)C(=O)N[C@@H](CCCNC(=N)N)C(N)=O)CSS1 [DP-7-12, c(Tyr-D(Asp)-Gly-Phe-SSa-Arg-Arg)] (H-Y[dD]GFCRR-NH2; linker 2-5 via NHCH2CMe2S)
A) ~45 min

###

experimentalTarget: DOP (Homo sapiens)
Sequence (P41143 whole entry): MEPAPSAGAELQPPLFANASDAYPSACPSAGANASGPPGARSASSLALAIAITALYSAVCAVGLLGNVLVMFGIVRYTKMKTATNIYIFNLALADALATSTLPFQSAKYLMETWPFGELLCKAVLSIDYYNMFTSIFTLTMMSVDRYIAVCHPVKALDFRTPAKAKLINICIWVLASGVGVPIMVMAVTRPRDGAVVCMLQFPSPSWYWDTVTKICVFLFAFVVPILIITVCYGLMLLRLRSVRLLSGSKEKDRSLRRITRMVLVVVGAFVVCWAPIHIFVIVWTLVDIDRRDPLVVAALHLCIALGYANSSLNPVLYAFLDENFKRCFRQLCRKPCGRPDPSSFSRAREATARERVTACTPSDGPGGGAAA
assayProtocol: In vitro cAMP activity at DOP (Table 10)
Type: cell-based
conditionNotes: cAMP inhibition, four-parameter regression
*1 amine or outer side, *2 acyl side, *3 side chain or, on linkers, in order; H or OH if unused. Where a SMILES comes first, the peptide text is derived from it. Bridges are numbered along the chain shown (N, C = ends). [ ]: non-standard residue; d: D form. ξ: configuration not given here. Phe(4-Cl) = N[C@@H](Cc1ccc(Cl)cc1)C(=O)O; NHCH2CMe2S = CC(C)(CN[*:1])S[*:2]; X1 = CC(C)(CN[*:2])S[*:1]; ξC = NC(CS)C(=O)O; Sar = CNCC(=O)O
quantityMeasured: EC50 (nM)
Kindly provide the numeric value in nM only, without the unit symbol.

Q) Form field: reported EC50 of CC1(C)CNC(=O)C[C@H](NC(=O)[C@@H](N)Cc2ccc(O)cc2)C(=O)NCC(=O)N[C@@H](Cc2ccccc2)C(=O)NC(C(=O)N[C@@H](CCCNC(=N)N)C(=O)N[C@@H](CCCNC(=N)N)C(N)=O)CSS1 (stereo partly drawn) [CP2, c(Tyr-Asp-Gly-Phe-SSa-Arg-Arg)] (H-YDGF[ξC]RR-NH2; linker 2-5 via NHCH2CMe2S; N-terminus assumed)
A) 1380

Q) Form field: reported EC50 of CC(C)C[C@H](NC(=O)[C@H](Cc1ccc(Cl)cc1)NC(=O)CN(C)C(=O)[C@@H](N)Cc1ccc(O)cc1)C(=O)N[C@@H](CCCNC(=N)N)C(=O)N[C@H](CCCNC(=N)N)C(=O)NC1CSSC(C)(C)CNC(=O)C[C@@H](C(=O)N[C@@H](CCCCN)C(N)=O)NC(=O)[C@H](CCCNC(=N)N)NC1=O (some centres unmarked) [CP10] (H-Y[Sar][Phe(4-Cl)]LR[dR][ξC]RDK-NH2; linker 7-9 via X1; N-terminus assumed)
A) 127

###

experimentalTarget: bovine pancreatic trypsin (Bos taurus, UniProt P00760)
Construct: from tissue; host or cells: bovine pancreas
Sequence (P00760 24-246): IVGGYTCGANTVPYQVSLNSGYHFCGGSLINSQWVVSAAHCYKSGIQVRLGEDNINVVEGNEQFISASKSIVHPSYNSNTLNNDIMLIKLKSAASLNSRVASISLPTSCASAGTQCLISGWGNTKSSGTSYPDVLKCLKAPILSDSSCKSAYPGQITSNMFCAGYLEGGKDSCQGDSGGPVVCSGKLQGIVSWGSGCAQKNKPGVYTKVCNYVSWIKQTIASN
assayProtocol: Trypsin stability assay (Table 10)
Type: in vitro ADME
conditionNotes: bovine pancreatic trypsin solution; bovine pancreatic trypsin 2.5 μg/mL, 37° C., One Phase Decay; read-out: Stability (t1/2, mins) Trypsin
*1 amine or outer side, *2 acyl side, *3 side chain or, on linkers, in order; H or OH if unused. Where a SMILES comes first, the peptide text is derived from it. Bridges are numbered along the chain shown (N, C = ends). [ ]: non-standard residue; d: D form. Phe(4-NO2) = N[C@@H](Cc1ccc([N+](=O)[O-])cc1)C(=O)O; NHCH2CMe2S = CC(C)(CN[*:1])S[*:2]; NMeR = CN[C@@H](CCCNC(=N)N)C(=O)O; X1 = CC(C)(CN[*:2])S[*:1]; Sar = CNCC(=O)O
quantityMeasured: half-life at 100 uM (min)
Kindly provide the numeric value in min only, without the unit symbol.

Q) Form field: reported half-life at 100 uM of CC(C)C[C@H](NC(=O)[C@H](Cc1ccc([N+](=O)[O-])cc1)NC(=O)CN(C)C(=O)[C@@H](N)Cc1ccc(O)cc1)C(=O)N[C@@H](CCCNC(=N)N)C(=O)N(C)[C@@H](CCCNC(=N)N)C(=O)N[C@@H]1CC(=O)NCC(C)(C)SSC[C@H](C(=O)N[C@H](CCCCN)C(N)=O)NC(=O)[C@@H](CCCNC(=N)N)NC1=O [CP14] (H-Y[Sar][Phe(4-NO2)]LR[NMeR][dD][dR][dC][dK]-NH2; linker 7-9 via NHCH2CMe2S)
A) 2320

Q) Form field: reported half-life at 100 uM of CC(C)C[C@H](NC(=O)[C@H](Cc1ccc([N+](=O)[O-])cc1)NC(=O)CN(C)C(=O)[C@@H](N)Cc1ccc(O)cc1)C(=O)N[C@@H](CCCNC(=N)N)C(=O)N[C@H](CCCNC(=N)N)C(=O)N[C@@H]1CSSC(C)(C)CNC(=O)C[C@H](C(=O)N[C@@H](CCCCN)C(N)=O)NC(=O)[C@H](CCCNC(=N)N)NC1=O [CP13] (H-Y[Sar][Phe(4-NO2)]LR[dR][dC]R[dD]K-NH2; linker 7-9 via X1)
A) 1410

###

experimentalTarget: UniProt:P41145
Sequence (P41145 whole entry): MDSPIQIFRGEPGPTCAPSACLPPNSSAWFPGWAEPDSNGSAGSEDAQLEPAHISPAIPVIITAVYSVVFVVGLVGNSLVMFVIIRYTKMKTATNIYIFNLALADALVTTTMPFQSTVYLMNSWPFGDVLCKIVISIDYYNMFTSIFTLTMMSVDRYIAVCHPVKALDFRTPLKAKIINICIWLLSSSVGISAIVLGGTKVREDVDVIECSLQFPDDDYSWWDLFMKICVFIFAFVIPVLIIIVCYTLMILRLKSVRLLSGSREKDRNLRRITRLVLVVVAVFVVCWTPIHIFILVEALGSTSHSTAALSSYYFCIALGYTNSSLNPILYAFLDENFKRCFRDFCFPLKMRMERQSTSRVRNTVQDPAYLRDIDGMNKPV
assayProtocol: In vitro cAMP activity at KOP (Table 10)
Format: cell-based
conditionNotes: cAMP inhibition, four-parameter regression, normalised to U50488H
*1 amine or outer side, *2 acyl side, *3 side chain or, on linkers, in order; H or OH if unused. Where a SMILES comes first, the peptide text is derived from it. Bridges are numbered along the chain shown (N, C = ends). [ ]: non-standard residue; d: D form. ξ: configuration not given here. Phe(4-NO2) = N[C@@H](Cc1ccc([N+](=O)[O-])cc1)C(=O)O; Phe(4-Cl) = N[C@@H](Cc1ccc(Cl)cc1)C(=O)O; NHCH2CMe2S = CC(C)(CN[*:1])S[*:2]; NMeR = CN[C@@H](CCCNC(=N)N)C(=O)O; X1 = CC(C)(CN[*:2])S[*:1]; ξC = NC(CS)C(=O)O; Sar = CNCC(=O)O
EC50 under 8 nM gets 1, anything at or over 8 nM gets 0.

Q) Strictly below 8 nM in EC50? CC(C)C[C@H](NC(=O)[C@H](Cc1ccc([N+](=O)[O-])cc1)NC(=O)CN(C)C(=O)[C@@H](N)Cc1ccc(O)cc1)C(=O)N[C@@H](CCCNC(=N)N)C(=O)N(C)[C@@H](CCCNC(=N)N)C(=O)N[C@@H]1CC(=O)NCC(C)(C)SSC[C@H](C(=O)N[C@H](CCCCN)C(N)=O)NC(=O)[C@@H](CCCNC(=N)N)NC1=O [CP14] (H-Y[Sar][Phe(4-NO2)]LR[NMeR][dD][dR][dC][dK]-NH2; linker 7-9 via NHCH2CMe2S)
A) 1

Q) Strictly below 8 nM in EC50? CC(C)C[C@H](NC(=O)[C@H](Cc1ccc([N+](=O)[O-])cc1)NC(=O)CN(C)C(=O)[C@@H](N)Cc1ccc(O)cc1)C(=O)N[C@@H](CCCNC(=N)N)C(=O)N(C)[C@@H](CCCNC(=N)N)C(=O)NC1CSSC(C)(C)CNC(=O)C[C@@H](C(=O)N[C@@H](CCCCN)C(N)=O)NC(=O)[C@H](CCCNC(=N)N)NC1=O (stereo partly drawn) [CP12] (H-Y[Sar][Phe(4-NO2)]LR[NMeR][ξC]RDK-NH2; linker 7-9 via X1; N-terminus assumed)
A) 1

Q) Strictly below 8 nM in EC50? CC(C)C[C@H](NC(=O)[C@H](Cc1ccc([N+](=O)[O-])cc1)NC(=O)CN(C)C(=O)[C@@H](N)Cc1ccc(O)cc1)C(=O)N[C@@H](CCCNC(=N)N)C(=O)N[C@H](CCCNC(=N)N)C(=O)N[C@@H]1CSSC(C)(C)CNC(=O)C[C@H](C(=O)N[C@@H](CCCCN)C(N)=O)NC(=O)[C@H](CCCNC(=N)N)NC1=O [CP13] (H-Y[Sar][Phe(4-NO2)]LR[dR][dC]R[dD]K-NH2; linker 7-9 via X1)
A) 0

Q) Strictly below 8 nM in EC50? CC1(C)CNC(=O)C[C@@H](NC(=O)[C@@H](N)Cc2ccc(O)cc2)C(=O)NCC(=O)N[C@@H](Cc2ccccc2)C(=O)N[C@H](C(=O)N[C@@H](CCCNC(=N)N)C(=O)N[C@@H](CCCNC(=N)N)C(N)=O)CSS1 [DP-7-12, c(Tyr-D(Asp)-Gly-Phe-SSa-Arg-Arg)] (H-Y[dD]GFCRR-NH2; linker 2-5 via NHCH2CMe2S)
A) 0

Q) Strictly below 8 nM in EC50? CC1(C)CNC(=O)C[C@H](NC(=O)CNC(=O)[C@@H](N)Cc2ccc(O)cc2)C(=O)N[C@@H](Cc2ccccc2)C(=O)NC(C(=O)N[C@@H](CCCNC(=N)N)C(=O)N[C@@H](CCCNC(=N)N)C(N)=O)CSS1 (stereo partly drawn) [CP4, c(Tyr-Gly-Asp-Phe-SSa-Arg-Arg)] (H-YGDF[ξC]RR-NH2; linker 3-5 via NHCH2CMe2S; N-terminus assumed)
A) 0

Q) Strictly below 8 nM in EC50? CC(C)C[C@H](NC(=O)[C@H](Cc1ccc(Cl)cc1)NC(=O)CN(C)C(=O)[C@@H](N)Cc1ccc(O)cc1)C(=O)N[C@@H](CCCNC(=N)N)C(=O)N[C@H](CCCNC(=N)N)C(=O)N[C@H]1CSSC(C)(C)CNC(=O)C[C@@H](C(N)=O)NC1=O [CP9] (H-Y[Sar][Phe(4-Cl)]LR[dR]CD-NH2; linker 7-8 via X1)
A) 1
